- Assayed target: Delta-type opioid receptor (Homo sapiens)
- Sequence (P41143 whole entry): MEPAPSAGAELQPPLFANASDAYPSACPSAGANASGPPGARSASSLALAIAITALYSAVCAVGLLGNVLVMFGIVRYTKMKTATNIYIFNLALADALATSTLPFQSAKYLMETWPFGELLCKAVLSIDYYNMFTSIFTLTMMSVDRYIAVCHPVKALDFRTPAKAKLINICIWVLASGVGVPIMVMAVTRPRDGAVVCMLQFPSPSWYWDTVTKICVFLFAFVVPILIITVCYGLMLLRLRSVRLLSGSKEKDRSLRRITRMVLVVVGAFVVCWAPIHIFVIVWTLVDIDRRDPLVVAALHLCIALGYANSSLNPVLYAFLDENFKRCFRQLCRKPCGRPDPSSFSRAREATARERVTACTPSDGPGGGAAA
- Measurement notes: Stimulation of [35S]GTPgammaS binding to human recombinant DOR relative to DPDPE
- Type: functional

Smiles	Activity, %
COc1ccc2c3c1O[C@H]1C(=O)CC[C@@]4(NC(=O)/C=C/c5ccc(Cl)cc5)[C@@H](C2)N(C)CC[C@]314	50
COc1ccc2c3c1O[C@H]1C(=O)CC[C@@]4(NC(=O)/C=C/c5ccccc5Cl)[C@@H](C2)N(C)CC[C@]314	110
COc1ccc2c3c1O[C@H]1C(=O)CC[C@@]4(NC(=O)/C=C/c5ccccc5C)[C@@H](C2)N(CC2CC2)CC[C@]314	39
COc1ccc2c3c1O[C@H]1C(=O)CC[C@@]4(NC(=O)/C=C/c5ccc(C)cc5)[C@@H](C2)N(C)CC[C@]314	86
COc1ccc2c3c1O[C@H]1C(=O)CC[C@@]4(NC(=O)/C=C/c5ccccc5Cl)[C@@H](C2)N(CC2CC2)CC[C@]314	36
Cc1ccccc1/C=C/C(=O)N[C@@]12CCC(=O)[C@@H]3Oc4c(O)ccc5c4[C@@]31CCN(C)[C@@H]2C5	71
COc1ccc2c3c1O[C@H]1C(=O)CC[C@@]4(NC(=O)/C=C/c5ccccc5C)[C@@H](C2)N(C)CC[C@]314	108

====

- Assayed target: Mu-type opioid receptor (Homo sapiens, UniProt P35372)
- Sequence (P35372 whole entry): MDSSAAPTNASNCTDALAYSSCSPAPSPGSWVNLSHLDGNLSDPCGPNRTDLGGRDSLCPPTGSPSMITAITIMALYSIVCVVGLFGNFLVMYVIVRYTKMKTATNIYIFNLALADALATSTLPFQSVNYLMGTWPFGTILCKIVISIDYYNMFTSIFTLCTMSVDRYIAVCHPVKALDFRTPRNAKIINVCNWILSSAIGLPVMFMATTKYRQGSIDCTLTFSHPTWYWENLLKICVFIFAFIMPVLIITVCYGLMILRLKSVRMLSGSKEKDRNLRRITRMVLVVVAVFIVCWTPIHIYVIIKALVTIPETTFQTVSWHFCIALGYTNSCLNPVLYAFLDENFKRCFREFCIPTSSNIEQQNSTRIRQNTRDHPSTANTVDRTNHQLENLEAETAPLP
- Measurement notes: Reversal of stimulation of [35S]GTP-gamma-S binding to human recombinant MOR transfected in CHO cells relative to DAMGO
- Assay type: functional, cell-based
Outcome label depends on Ke relative to 0.3 nM: at/above gives satisfied, below gives not satisfied.

Smiles	Qualitative label
O=C(/C=C/c1ccccc1Cl)N[C@@]12CCC(=O)[C@@H]3Oc4c(O)ccc5c4[C@@]31CCN(CC1CC1)[C@@H]2C5	satisfied
CN1CC[C@]23c4c5ccc(O)c4O[C@H]2C(=O)CC[C@@]3(NC(=O)/C=C/c2ccc([N+](=O)[O-])cc2)[C@H]1C5	not satisfied
Cc1ccccc1/C=C/C(=O)N[C@@]12CCC(=O)[C@@H]3Oc4c(O)ccc5c4[C@@]31CCN(CC1CC1)[C@@H]2C5	not satisfied
O=C(/C=C/c1ccc(Cl)cc1)N[C@@]12CCC(=O)[C@@H]3Oc4c(O)ccc5c4[C@@]31CCN(CC1CC1)[C@@H]2C5	satisfied
Cc1ccc(CCC(=O)N[C@@]23CCC(=O)[C@@H]4Oc5c(O)ccc6c5[C@@]42CCN(C)[C@@H]3C6)cc1	satisfied

====

- Assayed target: Kappa-type opioid receptor (Homo sapiens)
- Sequence (P41145 whole entry): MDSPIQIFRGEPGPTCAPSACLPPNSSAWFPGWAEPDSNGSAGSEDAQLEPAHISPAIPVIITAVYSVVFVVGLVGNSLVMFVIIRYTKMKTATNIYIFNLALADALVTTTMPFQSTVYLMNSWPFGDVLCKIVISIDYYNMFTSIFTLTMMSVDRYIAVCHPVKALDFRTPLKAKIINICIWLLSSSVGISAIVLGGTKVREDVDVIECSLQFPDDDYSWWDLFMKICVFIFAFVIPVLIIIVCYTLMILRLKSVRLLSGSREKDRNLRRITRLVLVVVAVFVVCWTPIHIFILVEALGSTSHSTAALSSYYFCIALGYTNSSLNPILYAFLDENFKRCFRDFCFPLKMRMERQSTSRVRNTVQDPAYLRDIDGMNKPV
- Condition set: CHO
- Description: Reversal of stimulation of [35S]GTPgammaS binding to human recombinant KOR transfected in CHO cells relative to U69593

Smiles	Units of measure	Ke
Cc1ccc(CCC(=O)N[C@@]23CCC(=O)[C@@H]4Oc5c(O)ccc6c5[C@@]42CCN(C)[C@@H]3C6)cc1	nM	4.9
O=C(/C=C/c1ccccc1Cl)N[C@@]12CCC(=O)[C@@H]3Oc4c(O)ccc5c4[C@@]31CCN(CC1CC1)[C@@H]2C5	nM	0.38
Cc1ccc(/C=C/C(=O)N[C@@]23CCC(=O)[C@@H]4Oc5c(O)ccc6c5[C@@]42CCN(C)[C@@H]3C6)cc1	nM	4.1
Cc1ccccc1/C=C/C(=O)N[C@@]12CCC(=O)[C@@H]3Oc4c(O)ccc5c4[C@@]31CCN(CC1CC1)[C@@H]2C5	nM	0.16
O=C(/C=C/c1ccc(Cl)cc1)N[C@@]12CCC(=O)[C@@H]3Oc4c(O)ccc5c4[C@@]31CCN(CC1CC1)[C@@H]2C5	nM	0.1
CN1CC[C@]23c4c5ccc(O)c4O[C@H]2C(=O)CC[C@@]3(NC(=O)/C=C/c2ccc([N+](=O)[O-])cc2)[C@H]1C5	nM	3.3

====

- Assayed target: Kappa-type opioid receptor (Homo sapiens)

Molecule	Assayed target	Ki / nM
O=C(/C=C/c1ccc(Cl)cc1)N[C@@]12CCC(=O)[C@@H]3Oc4c(O)ccc5c4[C@@]31CCN(CC1CC1)[C@@H]2C5 [CLOCINNAMOX]	Kappa-type opioid receptor (Homo sapiens)	1.4
Cc1ccc(CCC(=O)N[C@@]23CCC(=O)[C@@H]4Oc5c(O)ccc6c5[C@@]42CCN(C)[C@@H]3C6)cc1	Kappa-type opioid receptor (Homo sapiens)	0.57
Cc1ccccc1/C=C/C(=O)N[C@@]12CCC(=O)[C@@H]3Oc4c(O)ccc5c4[C@@]31CCN(CC1CC1)[C@@H]2C5	Kappa-type opioid receptor (Homo sapiens)	1.5
Cc1ccc(/C=C/C(=O)N[C@@]23CCC(=O)[C@@H]4Oc5c(O)ccc6c5[C@@]42CCN(C)[C@@H]3C6)cc1	Kappa-type opioid receptor (Homo sapiens)	1.5
